target: Eukaryotic translation initiation factor 2-alpha kinase 3 (Homo sapiens) (UniProt Q9NZJ5); test: Activation of PERK in HEK293 cells transfected with ATF4 response element assessed as unbound effective concentration preincubated for 30 mins followed by tunicamycin addition and measured after 6 hrs by One-Glo reagent based plate reader assay; format: cell-based; details: filed as activator, time 6.5 hrs
Sequence (Q9NZJ5 whole entry): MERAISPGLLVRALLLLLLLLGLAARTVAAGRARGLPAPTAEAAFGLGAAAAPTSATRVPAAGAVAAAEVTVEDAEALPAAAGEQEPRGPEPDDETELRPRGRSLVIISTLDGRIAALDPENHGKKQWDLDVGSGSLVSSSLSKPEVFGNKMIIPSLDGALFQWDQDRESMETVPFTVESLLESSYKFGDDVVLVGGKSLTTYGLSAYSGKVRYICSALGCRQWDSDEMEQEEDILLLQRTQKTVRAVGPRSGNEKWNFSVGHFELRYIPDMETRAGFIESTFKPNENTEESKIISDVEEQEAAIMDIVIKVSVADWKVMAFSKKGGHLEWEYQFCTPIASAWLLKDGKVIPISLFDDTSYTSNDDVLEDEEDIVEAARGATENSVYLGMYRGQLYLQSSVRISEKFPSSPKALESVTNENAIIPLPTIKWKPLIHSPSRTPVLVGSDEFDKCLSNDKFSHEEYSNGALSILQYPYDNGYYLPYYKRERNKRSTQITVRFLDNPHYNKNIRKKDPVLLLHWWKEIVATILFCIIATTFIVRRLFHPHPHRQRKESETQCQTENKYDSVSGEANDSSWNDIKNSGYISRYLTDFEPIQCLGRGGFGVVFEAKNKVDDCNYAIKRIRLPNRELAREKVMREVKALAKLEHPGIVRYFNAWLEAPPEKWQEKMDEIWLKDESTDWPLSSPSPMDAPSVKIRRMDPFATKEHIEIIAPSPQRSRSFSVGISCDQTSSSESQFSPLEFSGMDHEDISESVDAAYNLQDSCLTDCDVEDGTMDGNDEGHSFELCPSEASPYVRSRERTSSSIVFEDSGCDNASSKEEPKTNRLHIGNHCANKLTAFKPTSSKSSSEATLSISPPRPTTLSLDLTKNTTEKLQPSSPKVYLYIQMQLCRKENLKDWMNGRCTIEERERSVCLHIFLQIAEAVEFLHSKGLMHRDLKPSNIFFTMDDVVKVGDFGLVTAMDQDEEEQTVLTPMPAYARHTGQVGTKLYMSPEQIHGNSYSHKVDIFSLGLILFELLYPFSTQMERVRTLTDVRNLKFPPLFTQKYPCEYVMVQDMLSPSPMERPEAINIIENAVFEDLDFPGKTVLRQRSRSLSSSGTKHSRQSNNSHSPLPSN
Metric: fEC50 (nM)

{"Test smiles": "COc1ncc(Cl)cc1S(=O)(=O)Nc1ccc(F)c(-c2ccc3c(-c4ncc[nH]4)n[nH]c3c2F)c1F", "Tested system": "Eukaryotic translation initiation factor 2-alpha kinase 3 (Homo sapiens) (UniProt Q9NZJ5)", "Endpoint value": 55}
{"Test smiles": "CNC(=O)c1ncn2nc(-c3c(F)ccc(NS(=O)(=O)c4cc(Cl)cnc4OC)c3F)ccc12", "Tested system": "Eukaryotic translation initiation factor 2-alpha kinase 3 (Homo sapiens) (UniProt Q9NZJ5)", "Endpoint value": 280}

[a] CNC(=O)c1ncn2c(F)c(-c3c(F)ccc(NS(=O)(=O)c4cc(Cl)cnc4OC)c3F)ccc12
[b] CNC(=O)c1ncn2cc(-c3c(F)ccc(NS(=O)(=O)c4cc(Cl)cnc4OC)c3F)ccc12
[c] CNC(=O)c1ncn2cc(-c3c(F)ccc(NS(=O)(=O)c4cc(Cl)cnc4OC)c3F)ncc12
Ask | In this exercise, place the 3 molecules in ascending sequence of their recorded fEC50. Write the labels in rank order as requested.
Reply | a, b, c
